Record form. Attribute: IC50. Fill in for each entry.
Target: NAD-dependent protein deacetylase sirtuin-2 (Homo sapiens)
Sequence (Q8IXJ6 whole entry): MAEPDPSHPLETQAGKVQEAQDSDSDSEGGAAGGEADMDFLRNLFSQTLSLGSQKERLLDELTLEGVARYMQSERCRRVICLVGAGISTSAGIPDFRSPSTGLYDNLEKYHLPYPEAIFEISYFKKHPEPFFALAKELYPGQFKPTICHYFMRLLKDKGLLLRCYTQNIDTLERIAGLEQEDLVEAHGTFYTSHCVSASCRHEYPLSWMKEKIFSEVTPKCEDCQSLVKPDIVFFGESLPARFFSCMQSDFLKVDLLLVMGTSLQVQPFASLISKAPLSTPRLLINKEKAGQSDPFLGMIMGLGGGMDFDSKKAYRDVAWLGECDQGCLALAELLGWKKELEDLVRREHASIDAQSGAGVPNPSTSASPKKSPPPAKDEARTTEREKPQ
// note: answer is a bare numeric in µM

Recorded IC50 for "CC(=O)NCCCC[C@H](NC(=O)[C@H](C)NC(C)=O)C(=O)N[C@@H](C)C(=O)O" , please?
223

Recorded IC50 for "CC(=[Se])NCCCC[C@H](NC(=O)OCc1ccccc1)C(=O)Nc1ccccc1" , please?
2.7

Recorded IC50 for "CC(=O)N[C@@H](C)C(=O)N[C@@H](CCCCNC(C)=[Se])C(=O)N[C@@H](C)C(=O)O" , please?
7.2

Recorded IC50 for "CC(=O)N[C@@H](C)C(=O)N[C@@H](CCCCNC(=S)CC(C)C)C(=O)N[C@@H](C)C(=O)O" , please?
3.6
